# subject of test: NHERF4_4, Q86UT5
# Sequence (Q86UT5 464-550): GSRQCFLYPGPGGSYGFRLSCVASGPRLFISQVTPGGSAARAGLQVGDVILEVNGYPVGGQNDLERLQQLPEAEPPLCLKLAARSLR
# measurement notes: holdup assay
# Parameters: key: below the threshold = too weak to quantify, mostly under pKd 3.1 to 4
# condition notes: plain residues with an end cap or a label only (N-terminal biotin on a linker: ado-ado)
recorded metric: pKd
Respond with the number and no other words.

Exam item: Given the binder TSSMRGMDAV [RSRC2, Q7L4I2] , what is its reported pKd?
Marked response: 3.82

Exam item: Given the binder KSGKQTMLVV [TRIM29, Q14134] , what is its reported pKd?
Marked response: 3.8

Exam item: Given the binder VDSTVKVWTC [TRAF7, Q6Q0C0] , what is its reported pKd?
Marked response: 3.62

Now take the following binder into account.
Exam item: Given the binder MLSKQSESAI [FLVCR1, Q9Y5Y0] , what is its reported pKd?
Marked response: 3.92
